test-system: T1, recombinant human GPC2-His protein (human, UniProt Q8N158 24-554, limits assumed)
T1 construct: Bought protein; The SPR paragraph gives no catalogue number for GPC2-His; also called recombinant Human Glypican 2 Protein; recombinant human GPC2 protein; not shown: His tag
T1 sequence (looked up): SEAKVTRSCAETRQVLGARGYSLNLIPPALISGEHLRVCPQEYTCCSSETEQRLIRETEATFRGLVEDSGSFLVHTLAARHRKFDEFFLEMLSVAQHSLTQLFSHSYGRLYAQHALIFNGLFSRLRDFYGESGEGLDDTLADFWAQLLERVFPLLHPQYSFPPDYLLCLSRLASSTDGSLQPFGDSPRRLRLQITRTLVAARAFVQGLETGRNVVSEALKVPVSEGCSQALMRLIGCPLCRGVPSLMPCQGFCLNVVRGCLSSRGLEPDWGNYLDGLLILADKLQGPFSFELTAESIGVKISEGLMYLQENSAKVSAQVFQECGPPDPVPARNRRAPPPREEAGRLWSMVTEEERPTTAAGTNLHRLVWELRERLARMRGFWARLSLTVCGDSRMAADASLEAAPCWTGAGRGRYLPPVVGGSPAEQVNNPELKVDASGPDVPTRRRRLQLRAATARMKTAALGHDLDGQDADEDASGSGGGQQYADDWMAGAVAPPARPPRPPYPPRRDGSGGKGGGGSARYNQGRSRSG
procedure-text: SPR, Biacore T200, GPC2-His amine-coupled to CM5 chip, VHH-hIgG1Fc as analyte, 1:1 model
recorded-endpoint: koff (s⁻¹)
All answers are understood in s⁻¹, so give the number only.

QUERY: What value of koff has been recorded for this entry: AS78117VH4-hIgG1Fc (Fc fusion, also called anti-GPC2 VHH-hIgG1Fc; not shown: human IgG1 Fc fragment (hIgG1Fc)) EVQLVESGGGLVQPGGSLRLSCIVSRYTYATYSMAWFRQAPGKGLEGVSGLDSVGATGYAESVKGRFTISRDNSKNTLYLQMNSLRAEDTAVYYCVVDPASAKVTYGSWSTPSYAYWGQGTLVTVSS
RESULT: 0.00017

These data points were gathered from patent US20230136252A1.
